- PROCEDURE_DETAILS: Novel Modifiers of Survival Motor Neuron (SMN) Protein: Gene Identification via Genome-wide siRNA Screen;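 note: luminescence tracks full-length SMN protein made from the SMN2 reporter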
- ASSAY_CONDITIONS: HEK293T SMN2-luciferase reporter, siRNA knockdown, 72 h; actives lie on both sides
Among all 31,000 sequences or so, about 1,400 (4.5%) were called active. Shown is part of a subset that was picked to be rich in actives.
median seed-adjusted z-score of 0.02 or higher: met. Under 0.02: not met.

Q) Does CUAUGUACCGCUUCACUGATT against MMP9 have a reported median seed-adjusted z-score of at least 0.02?
A) not met

Q) Does GAUGGAUCUUUACAGUUGATT against METTL4 have a reported median seed-adjusted z-score of at least 0.02?
A) met

Q) Does GGAUGUAGCUGUCAACUGUTT against HSD17B10 have a reported median seed-adjusted z-score of at least 0.02?
A) not met

Q) Does GGCCUACGUUUGAAAGACATT against ZNF792 have a reported median seed-adjusted z-score of at least 0.02?
A) not met

Q) Does GGUUCCUUAUUAUAGUCCATT against GPR63 have a reported median seed-adjusted z-score of at least 0.02?
A) not met

Q) Does GGAAGAUCCUCUACCAGAATT against LATS2 have a reported median seed-adjusted z-score of at least 0.02?
A) not met

Q) Does UGAACGCAGUCAUCCGGAATT against MAPK15 have a reported median seed-adjusted z-score of at least 0.02?
A) met

Q) Does GGAAGGCUUUUAGCAAUGATT against ZNF570 have a reported median seed-adjusted z-score of at least 0.02?
A) met

Q) Does CUAUUUCCCUGCCUUCGAATT against GSTA3 have a reported median seed-adjusted z-score of at least 0.02?
A) met

Q) Does CCCUGUACGUGUACAUCAUTT against MPG have a reported median seed-adjusted z-score of at least 0.02?
A) not met

Q) Does CAGUUGCAACUCUUCGUGATT against ALB have a reported median seed-adjusted z-score of at least 0.02?
A) not met

Q) Does CACGAAAACUUACCCAGAATT against DGUOK have a reported median seed-adjusted z-score of at least 0.02?
A) not met

====

- PROCEDURE_DETAILS: Novel Modifiers of Survival Motor Neuron (SMN) Protein: Gene Identification via Genome-wide siRNA Screen;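 note: luminescence tracks full-length SMN protein made from the SMN2 reporter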
- ASSAY_CONDITIONS: HEK293T SMN2-luciferase reporter, siRNA knockdown, 72 h; actives lie on both sides
- Experimental: Spinal muscular atrophy (SMA) is the most common neuromuscular autosomal recessive disorder and one of the leading genetic causes of infant death. […] Briefly, 1 pmol of each siRNA was spotted to a well of a 384-well plate (Corning, Corning, NY) and 20 microL of serum-free DMEM containing […] of Lipofectamine RNAiMax (Life Technologies, Carlsbad, CA) was then added to each well. […] Raw luminescence reads were normalized to Ambion(R) Silencer(R) Negative Control #2 siRNA, then log10 transformed. […]
Out of some 31,000 sequences screened, about 1,400 (4.5%) were called active.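 Rule for the calls: active = median seed-adjusted z-score above 1 or below -1; inactive = the rest.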 The sample as a whole holds a higher share of actives than the screen did.
Would you mind answering with one of these outcomes? active, inactive

Q) Give the logged outcome of this assay for the following sequence: AUCCUUAUUUGACACGAAATT against HOXC8
A) inactive

Q) Give the logged outcome of this assay for the following sequence: CCACUCUCAUCAAAUCCGATT against MLL2
A) active

Q) Give the logged outcome of this assay for the following sequence: GGAACAUAGUCUUCAGGUATT against KIF20A
A) inactive

Q) Give the logged outcome of this assay for the following sequence: CACGGGAUAUGGAACGAAATT against CXCR7
A) inactive

Q) Give the logged outcome of this assay for the following sequence: GGAGAAGAAUGAGCAACUUTT against ADAM19
A) inactive

Q) Give the logged outcome of this assay for the following sequence: CCGCUGUUAUCAUUACCAUTT against KIR2DL5B
A) active

Q) Give the logged outcome of this assay for the following sequence: GCAUCUACAUGACCAACCUTT against GPR35
A) active

Q) Give the logged outcome of this assay for the following sequence: GUGUGAGGGUUGAACUCAATT against EGLN1
A) active

Q) Give the logged outcome of this assay for the following sequence: CCUACUAUGUGAGCAAUGATT against EEF1G
A) inactive

Q) Give the logged outcome of this assay for the following sequence: GCUAUAAGCCGAUAGUAGATT against 11-Sep
A) inactive

Q) Give the logged outcome of this assay for the following sequence: CCAACAUCGAGUCCCUCAATT against SLC29A3
A) inactive

Q) Give the logged outcome of this assay for the following sequence: CCAUCGUGGUAGAUCCGUUTT against CBL
A) inactive

Q) Give the logged outcome of this assay for the following sequence: CACUAUUGCAUGUAUCGAATT against ARHGAP10
A) inactive

Q) Give the logged outcome of this assay for the following sequence: CGCUGAAACCCGAUUCCUATT against ANPEP
A) inactive

Q) Give the logged outcome of this assay for the following sequence: GGCCUACAACGAAAGUGAATT against CAMKK1
A) inactive

Q) Give the logged outcome of this assay for the following sequence: CCUCAACUCGUGAAGAAGATT against GPRC5A
A) inactive

Q) Give the logged outcome of this assay for the following sequence: AGAGGUCCUUCAAAACAGATT against ENTPD6
A) inactive

Q) Give the logged outcome of this assay for the following sequence: UGGUCUCAAUGACAGUAGATT against SNRPB
A) active

Q) Give the logged outcome of this assay for the following sequence: UAUGAGUUGUUGUUGGGAATT against NSUN5
A) inactive

Q) Give the logged outcome of this assay for the following sequence: CCAUCGACAUUGAAACCUUTT against PITPNM2
A) inactive

Q) Give the logged outcome of this assay for the following sequence: CCACCUUCGAUGUUCCCAUTT against HMG20B
A) inactive

Q) Give the logged outcome of this assay for the following sequence: GCGUAUGGGAUUACAAGAATT against PAFAH1B1
A) inactive

Q) Give the logged outcome of this assay for the following sequence: GGUUGUAACUGCAAGAUCATT against TIMP3
A) active

Q) Give the logged outcome of this assay for the following sequence: GCAAGUCGUGAAACUAUAATT against YEATS4
A) inactive

Q) Give the logged outcome of this assay for the following sequence: GGACAAUCCUUUCAUUAAUTT against HTR3C
A) inactive

Q) Give the logged outcome of this assay for the following sequence: GGCCUUACGGGUGUAGUAATT against ZNF419
A) inactive

Q) Give the logged outcome of this assay for the following sequence: AGAAGUCUGUUGCUAUGCATT against GNB5
A) inactive

Q) Give the logged outcome of this assay for the following sequence: CCAAUACACUAGCAGUUAATT against TCP1
A) active

Q) Give the logged outcome of this assay for the following sequence: GGUUCUAGCUGUCAACAUUTT against AP1G2
A) inactive

Q) Give the logged outcome of this assay for the following sequence: GACCGUACGAGGCAAGUAATT against PAX1
A) inactive

Q) Give the logged outcome of this assay for the following sequence: AGCACAAGGUGGAACCGGUTT against CYGB
A) inactive

Q) Give the logged outcome of this assay for the following sequence: CAUUAUCUAUUCUAGACAATT against TTC18
A) active

Q) Give the logged outcome of this assay for the following sequence: ACAUGGACAAUGCCGCAGATT against HSPBP1
A) inactive

Q) Give the logged outcome of this assay for the following sequence: GUACAAGAGAUAAUGCAAATT against TFPI
A) inactive

Q) Give the logged outcome of this assay for the following sequence: GCACGAUUACUACUACCGATT against PNPLA1
A) inactive

Q) Give the logged outcome of this assay for the following sequence: CGCCAUCUGUGUAACUUCATT against CARD9
A) inactive

Q) Give the logged outcome of this assay for the following sequence: GGACAUUGGACUAACCCAATT against EFHB
A) inactive

Q) Give the logged outcome of this assay for the following sequence: AGGGAACAAGUUUACCAAATT against GTF2IRD1
A) inactive

Q) Give the logged outcome of this assay for the following sequence: CUGGAACAGUGUACCCAAATT against CD2AP
A) inactive

Q) Give the logged outcome of this assay for the following sequence: UGGACACCGUCACCAUGAATT against GPR78
A) inactive

Q) Give the logged outcome of this assay for the following sequence: CCCAAUAUGUGCGGAUUAATT against DSC3
A) inactive

Q) Give the logged outcome of this assay for the following sequence: CUUCAGUGCUGAUCAGGUATT against NDUFA2
A) inactive

Q) Give the logged outcome of this assay for the following sequence: GCAGUUACCCGCAUACCAATT against CALCR
A) inactive

Q) Give the logged outcome of this assay for the following sequence: ACCUCUACGUGGUCAGCUATT against DPP9
A) inactive

Q) Give the logged outcome of this assay for the following sequence: GCAGCUAUCUCUGUACAGATT against MAPK8IP3
A) inactive

Q) Give the logged outcome of this assay for the following sequence: AGCCUAUGGUCGGAACGAATT against APOBEC3F
A) inactive

Q) Give the logged outcome of this assay for the following sequence: AGUCCAAGGUGAUUACGCUTT against CPSF1
A) active

Q) Give the logged outcome of this assay for the following sequence: GCAUAAUAAGGGUAGGGAUTT against DDX53
A) inactive

Q) Give the logged outcome of this assay for the following sequence: CAAGAGUUAUGGUCUGGGATT against GCM1
A) inactive

Q) Give the logged outcome of this assay for the following sequence: GGCUUUUGAGCAUCCCAAUTT against CDK4
A) inactive
